B1: library; numbered along this chain (parent)
chain: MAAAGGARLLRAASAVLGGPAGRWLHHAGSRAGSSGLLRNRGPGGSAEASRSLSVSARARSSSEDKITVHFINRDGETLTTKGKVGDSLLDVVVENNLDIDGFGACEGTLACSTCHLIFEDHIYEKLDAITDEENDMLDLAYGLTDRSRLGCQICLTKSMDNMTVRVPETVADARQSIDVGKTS

Variants of: B1
Procedure Text: scaled log2 fold change in cell abundance, elesclomol vs control (0 = silent mean, 1 = nonsense mean) (scaled log2 ratio); higher = higher viability under elesclomol (loss of FDX1 cuproptosis function);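 further: variant abundance is its share of total variant reads in each endpoint sample, from next-generation sequencing of the integrated ORF PCR-amplified out of genomic DNA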
Experimental Setup: with HEK293T FDX1 KO; elesclomol 40 nM; glucose 10 mM; 11 days
Kind request: treat -0.05 as inclusive, so scaled log2 fold change at -0.05 or higher is YES, anything lower is NO.

C152H    YES
L37Y    YES
D161T    YES
V180S    NO
L140T    NO
T183C    NO
G5D    YES
F71H    YES
D146E    YES
A3E    YES
V85L    YES
G83C    YES
E169G    YES
T80V    NO
C112Q    YES
K126N    NO
A174M    NO
G19S    YES
S35E    NO
L53H    YES
A57W    YES
R149Q    YES
